test: chemical genetic growth profiling, strain panel (AID 1159580);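 note: tested at 20 µM; growth read once vehicle control cultures reached saturation at 30 °C; 1 = growth at the plate median or of vehicle wells; lower values mean less growth of the strain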; conditions: S. cerevisiae deletion strains, growth OD, locus YER015W, strain faa2, hits give low values
The whole screen tested about 5,500 compounds, of which about 2,000 (36%) were called active. Another 18% or so got no clear call; they are omitted. The list shows a part of the results.
METRIC: normalized growth

MOLECULE	READING
CCCCCCCCCCCCCCC(C(=O)O)C(O)(CC(=O)OC)C(=O)O (stereo not drawn)	1
COc1cc(C(=O)O[C@H]2CC[C@@]3(C)[C@@H]4CC[C@H]5[C@]6(O)C[C@H](O)[C@@]7(O)[C@@H](CN8C[C@@H](C)CC[C@H]8[C@@]7(C)O)[C@]6(O)C[C@@]53O[C@]24O)cc(OC)c1OC	0.998
CC(=O)NC(C(=O)O)C(C)(C)SN=O (stereo not drawn)	0.996
CC(C)=CCCC1(C)C=Cc2c(O)c3c(c(CC=C(C)C)c2O1)OC12C(=CC4CC1C(C)(C)OC2(C/C=C(/C)C(=O)O)C4=O)C3=O (stereo not drawn)	0.785
CC(C)CCCC1(C)C=Cc2c(O)c3c(c(CCC(C)C)c2O1)OC12C(CC4CC1C(C)(C)OC2(CCC(C)C(=O)O)C4O)C3=O (stereo not drawn)	1
COC(=O)Nc1nc2ccc(C(=O)c3ccccc3)cc2[nH]1	0.974
COC(=O)Nc1nc2ccc(S(=O)c3ccccc3)cc2[nH]1 (stereo not drawn)	0.995
C/C=C1\[C@H]2C=C(C)C[C@]1(N)c1ccc(=O)[nH]c1C2	1.02

* * *

test: chemical genetic growth profiling, strain panel (AID 1159580);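 note: tested at 20 µM; growth read once vehicle control cultures reached saturation at 30 °C; 1 = growth at the plate median or of vehicle wells; lower values mean less growth of the strain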; details: S. cerevisiae deletion strains, growth OD, locus YPL241C, strain CIN2, hits give low values
The campaign covered roughly 5,500 compounds. About 2,000 (36%) were called active. Roughly 18% stayed inconclusive and do not appear here. The list shows a part of the results.
compounds and their reported normalized growth
METRIC: normalized growth

>>> print(df.to_string())
                                   compound  reading
0  Nc1ccccc1C(=O)CC(N)C(=O)O (stereo not drawn)     1.01
1  C[C@H]1[C@H](C)CC[C@]2(CO)CC[C@]3(C)C(=CCC4[C@@]5(C)CC[C@H](O)C(C)(C)C5CC[C@]43C)[C@H]12 (stereo partly drawn)    0.995
2  COC(=O)C[C@H]1C(C)(C)C2(O)OC34CC2C(=O)[C@]1(C)C3CC[C@]1(C)C4=CC(=O)O[C@H]1c1ccoc1 (stereo partly drawn)        1

* * *

test: chemical genetic growth profiling, strain panel (AID 1159580);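 note: tested at 20 µM; growth read once vehicle control cultures reached saturation at 30 °C; 1 = growth at the plate median or of vehicle wells; lower values mean less growth of the strain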; conditions: S. cerevisiae deletion strains, growth OD, locus YDL132W, strain cdc53
Among all 5,500 compounds or so, about 2,000 (36%) were called active. Roughly 18% stayed inconclusive and do not appear here. Rule as the data show it: active = normalized growth mostly below about 0.91 (no sharp cut-off); inconclusive = no clear call, values can overlap the other calls; inactive = mostly above about 0.92. The list shows a part of the results.
Possible outcomes: 1 for active, 0 for inactive

>>> print(df.to_string())
                                    molecule  cat
 0     O=C(CSCc1csc2ccccc12)Nc1ccc(F)c(Cl)c1    0
 1     Cc1csc(NC(=O)Nc2ccc(C(F)(F)F)cc2)c1Cl    0
 2  Cc1ccc(S(=O)(=O)n2c(Sc3ccc([N+](=O)[O-])cc3[N+](=O)[O-])nc3cc(C)ccc32)cc1    0
 3  O=S(=O)(NC(=S)Nc1ccc(Cl)c(Cl)c1)c1ccccc1    0
 4        S=C(Nc1ccc(Cl)cc1)SCc1c(Cl)cccc1Cl    0
 5                   N#Cc1c2ccccc2nc2ccccc12    0
 6  Fc1ccc(NC(=S)N2CCCN(Cc3ccc(Cl)cc3Cl)CC2)cc1    0
 7  COc1cccc(NC(=S)NC2CC(C)CC(C)(C)C2)c1 (stereo not given)    0
 8  CSc1n[nH]c(-c2cc(C(F)(F)F)cc(C(F)(F)F)c2)n1    0
 9  O=[N+]([O-])c1cnc(Sc2nnc(SCc3cccc(C(F)(F)F)c3)s2)s1    1
10  S=C(NNC(=S)NC1CC2C=CC1C2)Nc1ccc(Br)c(Cl)c1 (stereo not given)    0
11       CCCc1nc(-c2ccccn2)[nH]c(=O)c1CC1CC1    0
12  O=[N+]([O-])c1ccc(S(=O)(=O)c2ccccc2)nc1S(=O)(=O)c1ccccc1    0
13  O=C(NCC1COc2ccccc2O1)c1ccc(Cl)cc1 (stereo not given)    0
14        O=C(Nc1ccc(Cl)cc1)SCc1c(Cl)cccc1Cl    0
15  O=C(NCCNc1ncc(Cl)cc1C(F)(F)F)C(F)(F)Sc1ccccc1    0
16  O=C(NCCNc1ncc(C(F)(F)F)cc1Cl)C(F)(F)Sc1ccccc1    0
17             Nc1ccc(Sc2ccccc2)nc1Sc1ccccc1    0
18  COC(=O)c1cnn(-c2c(Cl)cccc2Cl)c1C=C(C#N)C#N    0
19       Cc1csc(NC(=O)Nc2ccc(C(F)(F)F)cc2)c1    0

Attribution: PubChem BioAssay AID1159580
